- target_of_assay: MNK2 (Homo sapiens)
- Sequence (Q9HBH9 whole entry, species assumed): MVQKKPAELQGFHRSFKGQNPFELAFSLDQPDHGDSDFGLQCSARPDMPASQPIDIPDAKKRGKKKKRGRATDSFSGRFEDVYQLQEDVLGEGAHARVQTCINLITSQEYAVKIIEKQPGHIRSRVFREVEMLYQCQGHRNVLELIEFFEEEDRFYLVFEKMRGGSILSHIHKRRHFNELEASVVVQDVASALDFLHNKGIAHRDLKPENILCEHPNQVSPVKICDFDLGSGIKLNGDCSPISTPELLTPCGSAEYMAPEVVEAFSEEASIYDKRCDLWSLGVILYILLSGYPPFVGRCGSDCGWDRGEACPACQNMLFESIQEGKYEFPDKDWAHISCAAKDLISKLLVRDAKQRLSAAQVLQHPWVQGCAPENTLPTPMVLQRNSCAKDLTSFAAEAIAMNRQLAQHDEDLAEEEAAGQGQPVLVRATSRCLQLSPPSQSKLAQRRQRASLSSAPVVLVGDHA
- protocol_notes: Kinase profiling MNK2
- Assay type: biochemical
- test_conditions: 100 micromolar inhibitor concentration; 100 is no change
Can you tell me residual kinase activity, MNK2 for the items I'm about to list?
Give the value as a plain number.

Could you tell me which residual kinase activity, MNK2 is on file for `CC(=O)Nc1nc2ccccc2s1` ?
91

Another molecule to check: `O=C(Nc1nc2cc(O)ccc2s1)c1ccncc1`
75

For `O=C(Nc1nc2ccc(O)cc2s1)c1ccccc1` then?
25

Queued: `O=C(Nc1nc2ccc(O)cc2s1)c1ccncc1`
33

What would you report for `O=C(Nc1nc2cc(O)ccc2s1)c1cccnc1` ?
36

What about this molecule? `CC(=O)Nc1nc2cc(C)ccc2s1`
81

Same lookup for `O=C(Nc1nc2ccc(O)cc2s1)c1ccccn1` , please.
66

For `O=C(Nc1nc2cc(O)ccc2s1)c1ccccn1` then?
66

Now give it for `O=C(Nc1nc2ccc(O)cc2s1)c1cccnc1` too.
36

Where do the numbers come from? From patent US10231954B2.
